target: Human secretory PLA2 (Homo sapiens, UniProt P14555); assay: Secretory PLA2 inhibitory activity (diheptanoyl thio PC substrate, absorbance at 405 nm); conditions: diheptanoyl thio PC 1 mM, Triton X100 0.3 mM, pH 7.3, CaCl2 10 mM, 30 minutes, read-out: s-PLA2 Inhibition IC50
Sequence (P14555 21-144): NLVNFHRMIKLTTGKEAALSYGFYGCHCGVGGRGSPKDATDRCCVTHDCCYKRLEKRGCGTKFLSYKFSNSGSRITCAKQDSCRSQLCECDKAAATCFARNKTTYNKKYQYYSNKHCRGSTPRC
measurementKind: log10 of IC50 (log10 of the value in µM)
Please keep in mind that the values are log10 of IC50 expressed in µM.

Ask: Read off the recorded log10 of IC50 for "COc1c(C)c(OC(=O)c2c(C)c(C)c(OCCCOc3ccc(C(=O)O)cc3)c(C)c2OC)c(C)c(C)c1C(=O)O"
Result: 1.00

Ask: Kindly indicate its recorded log10 of IC50. Item: "COc1c(C)c(OC(=O)c2c(C)c(C)c(OCCCOc3ccccc3F)c(C)c2OC)c(C)c(C)c1C(=O)O"
Result: 1.41

Ask: Please report the measured log10 of IC50 for "COc1c(C)c(OC(=O)c2c(C)c(C)c(OCCC=C(c3ccccc3)c3ccccc3)c(C)c2OC)c(C)c(C)c1C(=O)O"
Result: 1.08

Ask: Indicate the recorded log10 of IC50 value for this compound: "COc1cc(OC)cc(OCCCOc2c(C)c(C)c(C(=O)Oc3c(C)c(C)c(C(=O)O)c(OC)c3C)c(OC)c2C)c1"
Result: 0.85

Ask: Given the compound "COc1c(C)c(OC(=O)c2c(C)c(C)c(OCCCOc3ccc4c(c3)OCO4)c(C)c2OC)c(C)c(C)c1C(=O)O" , write its reported log10 of IC50.
Result: 0.84

Ask: Tell me log10 of IC50 reported for "COc1c(C)c(OC(=O)c2c(C)c(C)c(OCCCN(S(C)(=O)=O)S(=O)(=O)c3ccccc3)c(C)c2OC)c(C)c(C)c1C(=O)O"
Result: 0.65

Ask: Output measured log10 of IC50 for this item: "COc1cc(OCCCOc2c(C)c(C)c(C(=O)Oc3c(C)c(C)c(C(=O)O)c(OC)c3C)c(OC)c2C)c(C(c2ccccc2)c2ccccc2)cc1OC"
Result: 1.18

Ask: Output measured log10 of IC50 for this item: "COc1c(C)c(OC(=O)c2c(C)c(C)c(OCCCOc3c(F)cccc3F)c(C)c2OC)c(C)c(C)c1C(=O)O"
Result: 0.83

Ask: // Input: "COc1c(C)c(OC(=O)c2c(C)c(C)c(OCCCN3C(=O)c4ccccc4S3(=O)=O)c(C)c2OC)c(C)c(C)c1C(=O)O" . Output its log10 of IC50 only.
Result: 0.83

Ask: For the compound "COc1c(C)c(OC(=O)c2c(C)c(C)c(OCCCN(C)S(=O)(=O)c3ccccc3)c(C)c2OC)c(C)c(C)c1C(=O)O" , report log10 of IC50.
Result: 0.78

Ask: Give recorded log10 of IC50. "COc1c(C)c(OC(=O)c2c(C)c(C)c(OCCCOc3cccc(F)c3)c(C)c2OC)c(C)c(C)c1C(=O)O"
Result: 1.70

Ask: Consider the compound "COc1c(C)c(OC(=O)c2c(C)c(C)c(OCCCOc3ccc(C(C)=O)cc3)c(C)c2OC)c(C)c(C)c1C(=O)O" . State its measured log10 of IC50.
Result: 0.85

Ask: # return recorded log10 of IC50 for input "COC(=O)c1ccc(OCCCOc2c(C)c(C)c(C(=O)Oc3c(C)c(C)c(C(=O)O)c(OC)c3C)c(OC)c2C)cc1"
Result: 0.71

Ask: // Input: "COc1c(C)c(OC(=O)c2c(C)c(C)c(OCCCOc3ccc(Cl)cc3Cl)c(C)c2OC)c(C)c(C)c1C(=O)O" . Output its log10 of IC50 only.
Result: 1.08

Ask: In one line, give reported log10 of IC50 of the entry "COc1c(C)c(OC(=O)c2c(C)c(C)c(OCc3ccc(F)cc3)c(C)c2OC)c(C)c(C)c1C(=O)O" .
Result: 1.34

Ask: Supply log10 of IC50 value. Item: "COc1ccccc1OCCCOc1c(C)c(C)c(C(=O)Oc2c(C)c(C)c(C(=O)O)c(OC)c2C)c(OC)c1C"
Result: 0.95

Ask: Identify log10 of IC50 associated with the compound "COc1c(C)c(OC(=O)c2c(C)c(C)c(OCCCN3CCN(C(c4ccc(F)cc4)c4ccc(F)cc4)CC3)c(C)c2OC)c(C)c(C)c1C(=O)O"
Result: 1.23

Ask: Give log10 of IC50 for "COc1c(C)c(OC(=O)c2c(C)c(C)c(OCCCNS(=O)(=O)c3ccc(F)cc3)c(C)c2OC)c(C)c(C)c1C(=O)O"
Result: 1.15

Ask: Return reported log10 of IC50. Input compound: COc1c(C)c(OC(=O)c2c(C)c(C)c(OCCC3=CCC4CC3C4(C)C)c(C)c2OC)c(C)c(C)c1C(=O)O (single isomer, unassigned)
Result: 1.64

Ask: Input "COc1c(C)c(OC(=O)c2c(C)c(C)c(OCCCN(S(C)(=O)=O)S(=O)(=O)c3ccc(F)cc3)c(C)c2OC)c(C)c(C)c1C(=O)O" , output reported log10 of IC50.
Result: 0.76

Ask: Output log10 of IC50 of "COc1c(C)c(OC(=O)c2c(C)c(C)c(OCCCOc3ccc(Br)cc3Br)c(C)c2OC)c(C)c(C)c1C(=O)O"
Result: 1.18

Ask: # return recorded log10 of IC50 for entry "COc1c(C)c(OC(=O)c2c(C)c(C)c(OCCCN(Cc3ccccc3)Cc3ccccc3)c(C)c2OC)c(C)c(C)c1C(=O)O"
Result: 1.08

Ask: Give log10 of IC50 for the following compound: "COc1c(C)c(OC(=O)c2c(C)c(C)c(OCCCS(=O)(=O)c3ccc(F)cc3)c(C)c2OC)c(C)c(C)c1C(=O)O"
Result: 1.70

Ask: State, in one line, measured log10 of IC50 of "COc1c(C)c(OC(=O)c2c(C)c(C)c(OCCCOc3ccc(C(F)(F)F)cc3)c(C)c2OC)c(C)c(C)c1C(=O)O"
Result: 1.32

Ask: Give the reported value of log10 of IC50 for this record: "COc1c(C)c(OC(=O)c2c(C)c(C)c(OCCCN(C)S(=O)(=O)c3ccc(F)cc3)c(C)c2OC)c(C)c(C)c1C(=O)O"
Result: 0.72

---

test system: adjuvant arthritis; test: Adjuvant arthritis in rats (Mycobacterium butyricum), foot edema volume; type: in vivo, Crj/LEW male rat; conditions: rat, 10 mg/kg P.O. daily, 17-18 days after adjuvant; *P < 0.05 (Examples 1, 69), **P < 0.01 (Examples 2, 23, 25) to vehicle control; Example 29 unmarked
Provide the recorded Inhibition % (To Nontreated Foot), edema volume for the entries that follow.
// note: answer is a bare numeric in %

Ask: // fetch Inhibition % (To Nontreated Foot), edema volume given entry "COc1c(C)c(OC(=O)c2c(C)c(C)c(OCCCOc3ccc(C(F)(F)F)cc3)c(C)c2OC)c(C)c(C)c1C(=O)O"
Result: 43.4

Ask: Query Inhibition % (To Nontreated Foot), edema volume for "COc1c(C)c(OC(=O)c2c(C)c(C)c(OCCCOc3ccc(F)cc3)c(C)c2OC)c(C)c(C)c1C(=O)O"
Result: 52.3

Ask: Give recorded Inhibition % (To Nontreated Foot), edema volume. "COc1c(C)c(OC(=O)c2c(C)c(C)c(OCCCOc3ccc(C)cc3)c(C)c2OC)c(C)c(C)c1C(=O)O"
Result: 33.1

Ask: Quote Inhibition % (To Nontreated Foot), edema volume reported for "COc1c(C)c(OC(=O)c2c(C)c(C)c(OCCCN3CCN(c4ccc(F)cc4)CC3)c(C)c2OC)c(C)c(C)c1C(=O)O" please.
Result: 24.6

Ask: Give a short answer stating reported Inhibition % (To Nontreated Foot), edema volume for "COc1c(C)c(OC(=O)c2c(C)c(C)c(OCCCOc3ccc(Cl)cc3)c(C)c2OC)c(C)c(C)c1C(=O)O" .
Result: 66.0

Ask: Identify Inhibition % (To Nontreated Foot), edema volume associated with the compound "COc1c(C)c(OC(=O)c2c(C)c(C)c(OCCCOc3ccc(Br)cc3)c(C)c2OC)c(C)c(C)c1C(=O)O"
Result: 66.0

---

molecular target: Human secretory PLA2 (Homo sapiens, UniProt P14555); experiment: Secretory PLA2 inhibitory activity (diheptanoyl thio PC substrate, absorbance at 405 nm); details: diheptanoyl thio PC 1 mM, Triton X100 0.3 mM, pH 7.3, CaCl2 10 mM, 30 minutes, read-out: s-PLA2 Inhibition IC50
Hi there, I'd appreciate the recorded pIC50 for every entry that follows.
Worth noting: pIC50 values are minus log10 of concentrations stated in mol/L.

Ask: Report measured pIC50; entry is "CCc1ccc(OCCCOc2c(C)c(C)c(C(=O)Oc3c(C)c(C)c(C(=O)O)c(OC)c3C)c(OC)c2C)cc1"
Result: 4.80

Ask: Find the measured pIC50 of "COc1c(C)c(OC(=O)c2c(C)c(C)c(OCCCN3CCC(=C(c4ccccc4)c4ccccc4)CC3)c(C)c2OC)c(C)c(C)c1C(=O)O" and report it.
Result: 4.74

Ask: Please list pIC50 recorded for the molecule "COc1c(C)c(OC(=O)c2c(C)c(C)c(OCCCOc3ccc(F)cc3F)c(C)c2OC)c(C)c(C)c1C(=O)O"
Result: 4.85

Ask: Identify measured pIC50 associated with "COc1c(C)c(OC(=O)c2c(C)c(C)c(OCCCCCCOc3ccc(C(F)(F)F)cc3)c(C)c2OC)c(C)c(C)c1C(=O)O"
Result: 4.49
